# assay summary: Stability in simulated intestinal fluid
# Assay type: in vitro ADME
# condition: 2 μM, 37° C., pH 7.5
measure name: half-life (t1/2) in simulated intestinal fluid

molecule	meas value
CCc1cc(OC)ccc1-c1ccc(CC(NC(=O)[C@H](CC(=O)O)NC(=O)[C@H](CO)NC(=O)[C@@H](NC(=O)C(C)(Cc2ccccc2F)NC(=O)[C@@H](NC(=O)CNC(=O)[C@H](CCC(N)=O)NC(=O)[C@H](C)NC(=O)[C@@H](N)Cc2c[nH]cn2)[C@@H](C)O)[C@@H](C)O)C(=O)NC(Cc2ccc(-c3ccccc3C(F)(F)F)cc2)C(N)=O)cc1 (single isomer, unassigned) [compound 28]	(6) h
CCc1cc(OC)ccc1-c1ccc(CC(NC(=O)[C@H](CC(=O)O)NC(=O)[C@H](CO)NC(=O)[C@@H](NC(=O)C(C)(Cc2ccccc2F)NC(=O)[C@@H](NC(=O)CNC(=O)[C@H](CCC(N)=O)NC(=O)[C@H](C)NC(=O)[C@@H](N)Cc2c[nH]cn2)[C@@H](C)O)[C@@H](C)O)C(=O)NC(Cc2ccc(-c3ccccc3C)nc2)C(N)=O)cc1 (single isomer, unassigned) [compound 26]	(6) h

###

# assay summary: Stability in human plasma
# Type: in vitro ADME
# condition: 2 μM, 37° C., 24 h
measure name: % degradation in 24 h when incubated with human plasma (%)
Expressed in %, but write only the number.

As a guide, the following entries are already answered.
compound	meas value
CCc1cc(OC)ccc1-c1ccc(CC(NC(=O)[C@H](CC(=O)O)NC(=O)[C@H](CO)NC(=O)[C@@H](NC(=O)C(C)(Cc2ccccc2F)NC(=O)[C@@H](NC(=O)CNC(=O)[C@H](CCC(N)=O)NC(=O)[C@H](CO)NC(=O)[C@@H](N)Cc2c[nH]cn2)[C@@H](C)O)[C@@H](C)O)C(=O)NC(Cc2ccc(-c3ccccc3C(F)(F)F)cc2)C(N)=O)cc1 (single isomer, unassigned) [compound 24]	78
CCc1cc(OC)ccc1-c1ccc(CC(NC(=O)[C@H](CC(=O)O)NC(=O)[C@H](CO)NC(=O)[C@@H](NC(=O)[C@H](Cc2ccccc2)NC(=O)[C@@H](NC(=O)CNC(=O)[C@H](CCC(N)=O)NC(=O)[C@H](CO)NC(=O)[C@@H](N)Cc2c[nH]cn2)[C@@H](C)O)[C@@H](C)O)C(=O)NC(Cc2ccc(-c3ccccc3C)nc2)C(N)=O)cc1 (single isomer, unassigned) [compound 6]	77

Moving on to the next compound.
// recorded % degradation in 24 h when incubated with human plasma for CCc1cc(OC)ccc1-c1ccc(CC(NC(=O)[C@H](CC(=O)O)NC(=O)[C@H](CO)NC(=O)[C@@H](NC(=O)[C@H](Cc2ccccc2)NC(=O)[C@@H](NC(=O)CNC(=O)[C@H](CCC(N)=O)NC(=O)[C@H](C)NC(=O)[C@@H](N)Cc2c[nH]cn2)[C@@H](C)O)[C@@H](C)O)C(=O)NC(Cc2ccc(-c3ccccc3C(F)(F)F)cc2)C(N)=O)cc1 (single isomer, unassigned) [compound 12] : 70

###

# assay summary: Stability in simulated gastric fluid
# Assay type: in vitro ADME
# condition: simulated gastric fluid with pepsin, 37° C., pH 1.5, pepsin, read-out: half-life (t1/2) in simulated gastric fluid
Here the recorded half-life at 2 μM is given for each entry.
Expressed in min, but write only the number.

As a guide, the following entries are already answered.
compound	half-life at 2 μM, min
CCc1cc(OC)ccc1-c1ccc(CC(NC(=O)[C@H](CC(=O)O)NC(=O)[C@H](CO)NC(=O)[C@@H](NC(=O)[C@H](Cc2ccccc2)NC(=O)[C@@H](NC(=O)CNC(=O)[C@H](CCC(N)=O)NC(=O)[C@H](CO)NC(=O)[C@@H](N)Cc2c[nH]cn2)[C@@H](C)O)[C@@H](C)O)C(=O)NC(Cc2ccc(-c3ccccc3C)nc2)C(N)=O)cc1 (single isomer, unassigned) [compound 6]	30
CCc1cc(OC)ccc1-c1ccc(CC(NC(=O)[C@H](CC(=O)O)NC(=O)[C@H](CO)NC(=O)[C@@H](NC(=O)[C@H](Cc2ccccc2)NC(=O)[C@@H](NC(=O)CNC(=O)[C@H](CCC(N)=O)NC(=O)[C@H](C)NC(=O)[C@@H](N)Cc2c[nH]cn2)[C@@H](C)O)[C@@H](C)O)C(=O)NC(Cc2ccc(-c3ccccc3C(F)(F)F)cc2)C(N)=O)cc1 (single isomer, unassigned) [compound 12]	30

// recorded half-life at 2 μM for CCc1cc(OC)ccc1-c1ccc(CC(NC(=O)[C@H](CC(=O)O)NC(=O)[C@H](CO)NC(=O)[C@@H](NC(=O)[C@H](Cc2ccccc2)NC(=O)[C@@H](NC(=O)CNC(=O)[C@H](CCC(N)=O)NC(=O)[C@H](CO)NC(=O)[C@@H](N)Cc2c[nH]cn2)[C@@H](C)O)[C@@H](C)O)C(=O)NC(Cc2ccc(-c3ccccc3C(F)(F)F)cc2)C(N)=O)cc1 (single isomer, unassigned) [compound 8] : 30

###

# assay summary: Stability against liver microsomes
# Assay type: in vitro ADME, human
# condition: human, microsomes; 2 μM, 37° C.; read-out: half-life (t1/2) with liver microsomes
measure name: half-life (h)
Expressed in h, but write only the number.

As a guide, the following entries are already answered.
molecule	value units	half-life
CCc1cc(OC)ccc1-c1ccc(CC(NC(=O)[C@H](CC(=O)O)NC(=O)[C@H](CO)NC(=O)[C@@H](NC(=O)[C@H](Cc2ccccc2)NC(=O)[C@@H](NC(=O)CNC(=O)[C@H](CCC(N)=O)NC(=O)C(C)(C)NC(=O)[C@@H](N)Cc2c[nH]cn2)[C@@H](C)O)[C@@H](C)O)C(=O)NC(Cc2ccc(-c3ccccc3C(F)(F)F)cc2)C(N)=O)cc1 (single isomer, unassigned)	h	2
CCc1cc(OC)ccc1-c1ccc(CC(NC(=O)[C@H](CC(=O)O)NC(=O)[C@H](CO)NC(=O)[C@@H](NC(=O)[C@H](Cc2ccccc2)NC(=O)[C@@H](NC(=O)CNC(=O)[C@H](CCC(N)=O)NC(=O)C2(NC(=O)[C@@H](N)Cc3c[nH]cn3)CC2)[C@@H](C)O)[C@@H](C)O)C(=O)NC(Cc2ccc(-c3ccccc3C(F)(F)F)cc2)C(N)=O)cc1 (single isomer, unassigned)	h	2

// recorded half-life for CCc1cc(OC)ccc1-c1ccc(CC(NC(=O)[C@H](CC(=O)O)NC(=O)[C@H](CO)NC(=O)[C@@H](NC(=O)[C@H](Cc2ccccc2)NC(=O)[C@@H](NC(=O)CNC(=O)[C@H](CCC(N)=O)NC(=O)C2(NC(=O)[C@@H](N)Cc3c[nH]cn3)CC2)[C@@H](C)O)[C@@H](C)O)C(=O)NC(Cc2ccc(-c3ccccc3C)nc2)C(N)=O)cc1 (single isomer, unassigned) : 2

// recorded half-life for CCc1cc(OC)ccc1-c1ccc(CC(NC(=O)[C@H](CC(=O)O)NC(=O)[C@H](CO)NC(=O)[C@@H](NC(=O)[C@H](Cc2ccccc2)NC(=O)[C@@H](NC(=O)CNC(=O)[C@H](CCC(N)=O)NC(=O)C(C)(C)NC(=O)[C@@H](N)Cc2c[nH]cn2)[C@@H](C)O)[C@@H](C)O)C(=O)NC(Cc2ccc(-c3ccccc3C)cc2)C(N)=O)cc1 (single isomer, unassigned) : 2

// recorded half-life for CCc1cc(OC)ccc1-c1ccc(CC(NC(=O)[C@H](CC(=O)O)NC(=O)[C@H](CO)NC(=O)[C@@H](NC(=O)[C@H](Cc2ccccc2)NC(=O)[C@@H](NC(=O)CNC(=O)[C@H](CCC(N)=O)NC(=O)C2(NC(=O)[C@@H](N)Cc3c[nH]cn3)CC2)[C@@H](C)O)[C@@H](C)O)C(=O)NC(Cc2ccc(-c3ccccc3C)cc2)C(N)=O)cc1 (single isomer, unassigned) : 2

###

# assay summary: Stability in human plasma
# Assay type: in vitro ADME
# condition: 2 μM, 37° C., 24 h
measure name: % degradation in 24 h when incubated with human plasma (%)
Expressed in %, but write only the number.

compound	value units	meas value
CCc1cc(OC)ccc1-c1ccc(CC(NC(=O)[C@H](CC(=O)O)NC(=O)[C@H](CO)NC(=O)[C@@H](NC(=O)C(C)(Cc2ccccc2F)NC(=O)[C@@H](NC(=O)CNC(=O)[C@H](CCC(N)=O)NC(=O)C2(NC(=O)[C@@H](N)Cc3c[nH]cn3)CC2)[C@@H](C)O)[C@@H](C)O)C(=O)NC(Cc2ccc(-c3ccccc3C)nc2)C(N)=O)cc1 (single isomer, unassigned)	%	00
CCc1cc(OC)ccc1-c1ccc(CC(NC(=O)[C@H](CC(=O)O)NC(=O)[C@H](CO)NC(=O)[C@@H](NC(=O)C(C)(Cc2ccccc2F)NC(=O)[C@@H](NC(=O)CNC(=O)[C@H](CCC(N)=O)NC(=O)[C@H](CO)NC(=O)[C@@H](N)Cc2c[nH]cn2)[C@@H](C)O)[C@@H](C)O)C(=O)NC(Cc2ccc(-c3ccccc3C)cc2)C(N)=O)cc1 (single isomer, unassigned)	%	78

Moving on to the next compound.
// recorded % degradation in 24 h when incubated with human plasma for CCc1cc(OC)ccc1-c1ccc(CC(NC(=O)[C@H](CC(=O)O)NC(=O)[C@H](CO)NC(=O)[C@@H](NC(=O)C(C)(Cc2ccccc2F)NC(=O)[C@@H](NC(=O)CNC(=O)[C@H](CCC(N)=O)NC(=O)C(C)(C)NC(=O)[C@@H](N)Cc2c[nH]cn2)[C@@H](C)O)[C@@H](C)O)C(=O)NC(Cc2ccc(-c3ccccc3C(F)(F)F)cc2)C(N)=O)cc1 (single isomer, unassigned) : 00
